B1: Tyrosine-protein kinase BTK, residues 215 to 273; numbered along this chain, Q06187 (parent)
chain: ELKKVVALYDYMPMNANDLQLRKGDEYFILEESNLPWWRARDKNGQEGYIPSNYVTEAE

- Variants of: B1
- Test name: abundance fitness (aPCA) (normalised: wild type 0, dead -1); higher = more abundant; growth selection in yeast, the domain comes from the species named
- Experimental conditions: Homo sapiens
Metric: abundance fitness
# answer = number (no unit)

[
  {
    "Sequence change": "I29Q",
    "Endpoint result": -0.624
  },
  {
    "Sequence change": "D18W",
    "Endpoint result": -0.07
  },
  {
    "Sequence change": "G48K",
    "Endpoint result": -0.8
  },
  {
    "Sequence change": "T56S",
    "Endpoint result": -0.03
  },
  {
    "Sequence change": "S33A",
    "Endpoint result": 0.026
  }
]

What does the record list as abundance fitness for E47K ?
-0.107

What does the record list as abundance fitness for E57T ?
-0.006

The measured values listed here are drawn from the Human Domainome abundance scans (Beltran et al. 2025).
